Value source: the Kinase Knowledgebase extract (Sharma et al. 2016)

As a worked illustration, we turn to IC50 data collected for PIK3CA (human).
Reported property: IC50 (nM)

A: CC(=O)Nc1nc2ccc(-c3ccnc(N4CCC[C@@H]4c4ccccc4)n3)cc2s1
B: CC(=O)Nc1nc2ccc(-c3ccnc(N4CCC[C@@H]4c4ccccc4C)n3)cc2s1
Between the entries labelled A and B , which has a larger IC50 value on record? Please identify the chosen entry by its label. A
(A: 2620 nM, B: 1560 nM)
